pKi: −log10 of the molar value.
Below are pKi values for UniProt:P14842 collected from several publications.
Sequence (P14842 whole entry): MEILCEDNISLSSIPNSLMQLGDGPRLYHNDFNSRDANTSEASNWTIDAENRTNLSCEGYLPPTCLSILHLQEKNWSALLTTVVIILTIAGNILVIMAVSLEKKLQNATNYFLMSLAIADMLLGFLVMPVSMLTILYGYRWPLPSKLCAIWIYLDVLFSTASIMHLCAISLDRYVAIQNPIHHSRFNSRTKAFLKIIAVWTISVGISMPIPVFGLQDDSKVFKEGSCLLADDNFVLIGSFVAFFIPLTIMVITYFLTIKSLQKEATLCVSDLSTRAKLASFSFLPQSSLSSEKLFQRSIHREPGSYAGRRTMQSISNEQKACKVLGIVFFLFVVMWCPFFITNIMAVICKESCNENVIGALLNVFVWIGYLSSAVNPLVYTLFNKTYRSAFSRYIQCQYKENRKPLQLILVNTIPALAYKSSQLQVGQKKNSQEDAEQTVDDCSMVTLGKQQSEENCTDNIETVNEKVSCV

- compound: "COc1ccccc1N1CCN(CCCCN2C(=O)C[C@H](NC(=O)C34CC5CC(CC(C5)C3)C4)C2=O)CC1"
  measuredTarget: "UniProt:P14842"
  pKi: 6.76
- compound: "COc1ccccc1N1CCN(CCCCc2ccc3c(c2)OCC(=O)N3CCN2CCC(=C(c3ccc(F)cc3)c3ccc(F)cc3)CC2)CC1"
  measuredTarget: "UniProt:P14842"
  pKi: 6.92
- compound: "O=C(NCCCCN1CCN(c2cccc(Cl)c2)CC1)[C@@H]1CCCN1C(=O)c1ccccc1"
  measuredTarget: "UniProt:P14842"
  pKi: 6.89
- compound: "Fc1ccccc1OC(CCN1CCN(c2noc3ccccc23)CC1)c1ccccc1 (centres undefined)"
  measuredTarget: "UniProt:P14842"
  pKi: 7.76
- compound: "CN1CCCC[C@@H]1CCN1c2ccccc2Sc2ccc([S@@](C)=O)cc21"
  measuredTarget: "UniProt:P14842"
  pKi: 7.72
- compound: "O=C(NCCN1CCN(c2ccc(Cl)c(Cl)c2)CC1)c1ccccn1"
  measuredTarget: "UniProt:P14842"
  pKi: 7.13
- compound: "O=c1oc2cc(OCCCCCN3CCC(c4noc5cc(F)ccc45)CC3)ccc2c2c1CCC2"
  measuredTarget: "UniProt:P14842"
  pKi: 6.37
- compound: "COc1ccccc1N1CCN(CCCCn2c(=O)ccc(=O)n2-c2ccccc2)CC1"
  measuredTarget: "UniProt:P14842"
  pKi: 5.84
- compound: "O=C1c2ccoc2CCC1CCN1CCN(C(=O)c2ccc(F)cc2)CC1 (centres undefined)"
  measuredTarget: "UniProt:P14842"
  pKi: 5.70
